# ASSAYED_TARGET: K-Ras G12C (Homo sapiens (Human), UniProt P01116+P62937, G12C)
# Sequence (P01116-2 other isoform, or with tags, fused parts or gaps G12C): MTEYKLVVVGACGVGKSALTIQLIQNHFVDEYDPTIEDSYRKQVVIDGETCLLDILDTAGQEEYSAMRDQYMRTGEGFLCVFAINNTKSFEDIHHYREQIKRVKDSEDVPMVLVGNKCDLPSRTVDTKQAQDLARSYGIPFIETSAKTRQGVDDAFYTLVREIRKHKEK
# Sequence (P62937 whole entry): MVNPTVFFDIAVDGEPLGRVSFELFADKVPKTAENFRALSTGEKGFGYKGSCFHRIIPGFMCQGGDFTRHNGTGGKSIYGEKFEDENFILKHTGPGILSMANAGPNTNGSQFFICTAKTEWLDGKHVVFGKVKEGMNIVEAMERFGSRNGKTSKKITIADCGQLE
# PROCEDURE_TEXT: Ras-Raf (BRAF RBD) disruption / FRET / MOA assay, KRAS G12C
# Assay type: biochemical
# PROTOCOL_CONDITIONS: KRAS G12C; Ras-Raf disruption/FRET/MOA assay; read-out: IC50* KRAS G12C FRET data

{"MOLECULE": "CCn1c(-c2cccnc2[C@H](C)OC)c2c3cc(ccc31)-c1csc(n1)C[C@H](NC(=O)CCO[C@@H]1CCN(C(=O)C#CC(C)(C)N3CCC3)C1)C(=O)N1CCC[C@H](N1)C(=O)OCC(C)(C)C2 (atropisomer, axis not shown)", "IC50": "10 to 100 nM"}
{"MOLECULE": "CCn1c(-c2cncnc2)c2c3cc(ncc31)-c1cc(O)cc(c1)C[C@H](NC(=O)[C@H](C(C)C)N(C)C(=O)[C@H]1CCN(C(=O)C#CCN(C)C)C1)C(=O)N1CCC[C@H](N1)C(=O)OCC(C)(C)C2", "IC50": "< 10 nM"}
